The variants listed here are annotated with their protein stability index.
B1: C10orf62 (parent)
chain: TSECPSDKDKSPESHKAKNESWIK

Variants of: B1
Test: protein stability index of a GFP-peptide fusion (GPS, HEK-293T) (PSI 1-6); higher = more stable;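 note: lentivirally expressed fusions sorted by FACS into six bins by GFP to DsRed ratio, PSI derived from sequencing read proportions per bin multiplied by bin number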
Details: c terminus: a fixed tail appended
Answer with a bare number; do not write a unit.

Return reported protein stability index; argument: `S6N`
3.76

Look at this variant and give its reported protein stability index. `I23T`
3.33

Given the entry `K16S` , report its measured protein stability index.
3.79

So what's the measured protein stability index for this one? `S21F`
5.12

Could you tell me which protein stability index is on file for `I23K` ?
4.59

Entry `D9N` : reported protein stability index = ?
2.94

Please look up its protein stability index: `K18R`
3.51

Entry `W22M` : reported protein stability index = ?
5.6

Entry `K8S` : reported protein stability index = ?
3.84

I have this variant here, `I23F` , and I need its recorded protein stability index.
5.32

Recorded protein stability index of `E20V` , please.
3.77

Suppose we examine the variant `K16R` ; what protein stability index value has been reported?
3.02
